Please respond with reported IC50 for every item in the list.
# Test system: MIA-PaCa-2 pancreatic cancer cell line (KRAS G12C)
# Test method notes: Cell proliferation assay (CellTiter 96 Aqueous One)
# Format: cell-based
# Measurement context: Homo sapiens, MIA PaCa-2, MIA PaCa-2

The examples below pair each entry with its known result.
CO[C@@H]1CC[C@H](Nc2nc(-c3nccn3C)nc3sc(-c4ccn(C(C)C)n4)c(C)c23)C1 = < 1 µM
CO[C@H]1C[C@@H](Nc2nc(-c3nccn3C)nc3sc(-c4ccn(C(C)C)n4)c(C)c23)C[C@H]1OC = 5 to 10 µM
COCCn1ccnc1-c1nc(N[C@H]2C[C@@H](OC)C2)c2c(-c3ccccc3)c(-c3ccn(C)n3)sc2n1 = 1 to 4.99 µM
Cc1c(-c2ccn(C(C)C)n2)sc2nc(-c3nccn3C)nc(NC3CCOC3)c12 (racemic) = 5 to 10 µM
Cc1c(-c2ccn(C(C)C)n2)sc2nc(-c3nccn3C)nc(NCc3n[nH]c(=O)n3C)c12 = > 10 µM
COc1cccc(Nc2nc(-c3nccn3C)nc3sc(-c4ccn(C(C)C)n4)c(C)c23)n1.Cl [Compound 65, hydrochloride salt] = 5 to 10 µM

Please state IC50 for every compound in the list that follows.
1. COc1cccc(Nc2nc(-c3nccn3C)nc3sc(-c4ccn(C(C)C)n4)c(C)c23)c1
2. COC1CCCN(c2nc(-c3nccn3C)nc3sc(-c4ccn(C(C)C)n4)c(C(F)(F)F)c23)C1 (racemic)
3. COC1CCCN(c2nc(-c3nccn3C)nc3sc(-c4ccn(C(C)C)n4)c(-c4ccccc4)c23)C1 (racemic)
4. O=C(c1nc(O)c2scc(-c3ccccn3)c2n1)N1CCCC1

1: 5 to 10 µM; 2: 5 to 10 µM; 3: 5 to 10 µM; 4: > 10 µM

Hi, could you look up IC50 for each item in my list?
1. Oc1nc(-c2ccncn2)nc2c(-c3ccccn3)csc12
2. COCCn1ccnc1-c1nc(N[C@H]2C[C@@H](OC)C2)c2ccsc2n1

> 10 µM
> 10 µM
